- Tested on: 786-0 renal
- assayText: NCI-60 one-dose screen, 48 h (100 = growth as untreated, 0 = no growth, -100 = all killed)
- conditionDetails: 10 µM unless noted
About 83,000 compounds went through this panel and 20% of them were active in at least one assay; those are over-represented in the sample as a whole.
Each record's growth is compared with bin 0 (below 40%), bin 1 (40% to below 70%), bin 2 (70% or more) to give its class.

// known answers, use as guide
INSERT INTO measurements (compound, group) VALUES
  ('CC(C)(C)n1cc(-c2ccnc(NCCNS(=O)(=O)c3cccc4ccccc34)c2)c(-c2cccc(O)c2)n1', 'bin 1'),
  ('C[C@@H]1N=C(c2ccc(Cl)cc2Cl)Nc2nc3ccccn3c2C1=O', 'bin 2'),
  ('NC(=N\N=C/c1ccc(Cl)cc1Cl)/C(N)=N\N=C/c1ccc(Cl)cc1Cl', 'bin 0');

Which class is correct for the following compound? "COC(=O)[C@@H](Cc1c[nH]c2ccccc12)NC(=O)[C@H](Cc1ccccc1)NCc1ccncc1"
bin 2

Using the reported growth, which band applies to OC1CSSC1Cn1cnc2c(Nc3ccc(F)c(Cl)c3)ncnc21 (stereo not given) ?
bin 2

For "Cc1c(-c2cnc3ccc(Cl)cc3c2C(=O)O)nnn1-c1ccc(Cl)cc1" , which growth bin applies?
bin 1
